Field: Activity. Provide a value for each of the compounds that follow.
Tested on: Rattus norvegicus
Measurement notes: Ability to elicit head twitches in rats a response characteristic of a serotonin mimetic action in the central nervous system was measured after 2 mg/kg of ip administration
Type: functional
Recorded conditions: route intraperitoneal
Keep the answer to the number alone.

## Input Item `CS(=O)(=O)c1ccc2nc(N3CCNCC3)cnc2c1` has what recorded Activity?
## Output 1

## Input What does the record list as Activity for `Brc1ccc2nc(N3CCNCC3)cnc2c1.Cl` ?
## Output 4

## Input Suppose we examine the compound `Fc1ccc2nc(N3CCNCC3)cnc2c1` ; what Activity value has been reported?
## Output 4

## Input Return reported Activity; argument: `COc1ccc2ncc(N3CCNCC3)nc2c1`
## Output 5
